- STUDY_SYSTEM: Disintegrin and metalloproteinase domain-containing protein 17 (Homo sapiens) (UniProt P78536)
- Sequence (P78536 215-824 limits assumed): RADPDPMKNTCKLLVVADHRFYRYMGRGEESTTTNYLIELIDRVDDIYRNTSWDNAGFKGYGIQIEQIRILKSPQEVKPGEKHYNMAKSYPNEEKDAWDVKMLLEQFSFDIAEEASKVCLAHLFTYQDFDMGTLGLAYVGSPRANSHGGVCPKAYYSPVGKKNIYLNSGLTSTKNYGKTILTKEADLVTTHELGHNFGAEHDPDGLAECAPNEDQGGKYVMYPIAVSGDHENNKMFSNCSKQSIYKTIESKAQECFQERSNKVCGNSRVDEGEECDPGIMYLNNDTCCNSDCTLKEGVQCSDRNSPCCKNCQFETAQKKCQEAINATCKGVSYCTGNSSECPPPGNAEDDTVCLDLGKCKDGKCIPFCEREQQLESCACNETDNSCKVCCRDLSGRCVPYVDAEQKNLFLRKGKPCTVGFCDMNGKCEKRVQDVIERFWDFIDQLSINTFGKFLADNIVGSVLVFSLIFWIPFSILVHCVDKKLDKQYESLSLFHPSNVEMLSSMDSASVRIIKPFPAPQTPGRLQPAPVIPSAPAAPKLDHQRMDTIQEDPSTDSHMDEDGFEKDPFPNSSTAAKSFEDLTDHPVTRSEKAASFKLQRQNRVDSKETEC
- ASSAY_SUMMARY: inhibition of ADAM17 peptide cleavage – biochemical, QFRET, primary screen (AID 720648);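 note: 0% = DMSO-only wells as the low control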
- EXPERIMENTAL_PARAMETERS: recombinant ADAM17, EDANS/DABCYL FRET peptide cleavage; at 6.95 µM
About 3,100 (0.84%) of roughly 370,000 compounds were called active.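 Rule for the calls: active = inhibition above the mean of compounds lying between control limits plus 3 SD, set per campaign (cut at about 8.5% in these data); inactive = the rest.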 Shown is part of a subset that was picked to be rich in actives.
Output constraint: value belongs to Y for active, N for inactive

# input Per the assay record, what outcome was assigned to COc1ccc(CSc2nnc(SCC(=O)Nc3ccccc3C(F)(F)F)s2)cc1 ?
# output N

# input For this compound, state the assay outcome: C[C@H]1[C@H](NC(=O)c2cccc(N(C)C)c2)CC[C@@]23CCCN2C(=O)CCC[C@@H]13
# output N

# input Test call, this compound: O=C1C(=O)N(Cc2ccc(-c3ccsc3)cc2)c2ccc(OC(F)(F)F)cc21
# output N

# input Each compound tested received a call. Report the one for Cc1nc(CNc2ncnc3ccc(-c4ccc5c(c4)OCO5)cc23)cs1 .
# output N

# input Status in this test for COc1ccc(CC(=O)c2ccc(O)cc2O)cc1OC ?
# output Y

* * *

- STUDY_SYSTEM: Disintegrin and metalloproteinase domain-containing protein 17 (Homo sapiens) (UniProt P78536)
- ASSAY_SUMMARY: inhibition of ADAM17 peptide cleavage – biochemical, QFRET, primary screen (AID 720648);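 note: 0% = DMSO-only wells as the low control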
- EXPERIMENTAL_PARAMETERS: recombinant ADAM17, EDANS/DABCYL FRET peptide cleavage; at 6.95 µM
About 3,100 (0.84%) of roughly 370,000 compounds were called active.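 The calls were made as follows: active = inhibition above the mean of compounds lying between control limits plus 3 SD, set per campaign (cut at about 8.5% in these data); inactive = the rest.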 What follows is part of a selection rich in actives, with near analogues and random picks from the rest.
Answer with one of the outcomes T = active, F = inactive

# input // return assay outcome for CC(C)CNc1cccc2c1S(=O)(=O)N(Cc1cn(Cc3ccc(Cl)cc3)nn1)Cc1ccccc1O2
# output F

# input Call for entry CN(C)c1ccc(NC(=S)N(CCc2ccccc2)C2CC(=O)N(c3c(Cl)cccc3Cl)C2=O)cc1 (centres undefined) :
# output F

# input Give the logged outcome of this assay for the following compound: O=C(NCc1cccs1)C1CCN(S(=O)(=O)c2ccccc2[N+](=O)[O-])CC1
# output F

# input Per the records of this test, what outcome belongs to CC(C)(C)c1ccc(S(=O)(=O)NCC2CCN(C(=O)C(=O)c3cc4ccccc4o3)CC2)cc1 ?
# output T

# input What is the recorded call for this compound in the test? CC1(C)C=Cc2c(ccc3c2OC[C@@H](c2ccc(O)cc2O)C3)O1
# output T

# input Which result was noted for this compound in the test: N#Cc1cccc(C(=O)NCC2CCN(C(=O)C(=O)c3cc4ccccc4o3)CC2)c1
# output F

# input Would you mind telling me which call this test gave CCOC(=O)c1csc(NC(=O)C2CCCN(S(=O)(=O)c3ccc(Cl)s3)C2)n1 (centres undefined) ?
# output F

# input Fill in: this test's call for COc1ccc(CC(N)c2csc(NC(=O)NC(c3ccccc3)c3ccccc3)n2)cc1 (centres undefined) is ___
# output T

# input I'd appreciate the recorded outcome for O=C(Nc1ccc(Br)cc1)OCCN1C(=O)CCC12CCC(c1ccccc1)CC2 (centres undefined) from this test.
# output F

* * *

- STUDY_SYSTEM: Disintegrin and metalloproteinase domain-containing protein 17 (Homo sapiens) (UniProt P78536)
- ASSAY_SUMMARY: inhibition of ADAM17 peptide cleavage – biochemical, QFRET, primary screen (AID 720648);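 note: 0% = DMSO-only wells as the low control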
- EXPERIMENTAL_PARAMETERS: recombinant ADAM17, EDANS/DABCYL FRET peptide cleavage; at 6.95 µM; active compounds read high
The campaign covered roughly 370,000 compounds. About 3,100 (0.84%) were called active. Many of the other results were omitted from the sample, so actives are more common in it than they were.
REPORTED_PROPERTY: inhibition (%)
Field: numeric (%). Do not append units.

# input // query inhibition value for entry Cc1cc(C)cc(NC(=S)NCCc2c[nH]c3ccccc23)c1
# output 16.1

# input Quick one: inhibition for CSCCC(NC(=O)COc1ccccc1)C(=O)N1CCN(c2cccc(C(F)(F)F)c2)CC1 (centres undefined) ?
# output 0.72

# input Recorded inhibition of CCC(C)[C@@H](C(=O)OC)N(CCc1cn(Cc2ccccc2)nn1)S(=O)(=O)c1ccccc1Br (some centres undefined) , please.
# output 6.37

# input Query: inhibition; subject: CC(C)CNc1cccc2c1S(=O)(=O)N(Cc1cn(Cc3ccccc3C(F)(F)F)nn1)Cc1ccccc1O2
# output -9.08

# input I am curious: what inhibition value has been reported for COc1cccc(CNC(=O)C2CCCN(c3nc4ccccc4o3)C2)c1OC (centres undefined) ?
# output 1.62

# input Find the recorded inhibition belonging to O=C(CSc1nc2c(c(=O)[nH]1)CCCC2)N1CCCCC1 and report it.
# output -1.39

# input # get_value(readout='inhibition', item= Cc1c(C)c2ccc(OCC(=O)N3CCN(c4cccc(Cl)c4)CC3)cc2oc1=O )
# output -9.1

# input Dear colleague, I am looking for the recorded inhibition of the following compound: Cc1ccc(S(=O)(=O)N(C)CC(=O)NCCc2c[nH]c3ccccc23)cc1
# output 0.52

# input Consider the compound shown here: CN1C(=O)c2cc(NS(C)(=O)=O)ccc2OC[C@@H]2O[C@@H](CC(=O)NCc3ccc(-c4ccccc4)cc3)CC[C@H]21 What is its recorded inhibition?
# output -3.9

* * *

- STUDY_SYSTEM: Disintegrin and metalloproteinase domain-containing protein 17 (Homo sapiens)
- ASSAY_SUMMARY: inhibition of ADAM17 peptide cleavage – biochemical, QFRET, primary screen (AID 720648);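 note: 0% = DMSO-only wells as the low control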
- EXPERIMENTAL_PARAMETERS: recombinant ADAM17, EDANS/DABCYL FRET peptide cleavage; at 6.95 µM
The campaign covered roughly 370,000 compounds. About 3,100 (0.84%) were called active.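 The calls were made as follows: active = inhibition above the mean of compounds lying between control limits plus 3 SD, set per campaign (cut at about 8.5% in these data); inactive = the rest.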 This is one part of a sample in which actives are shown more often than they occur.
Lab note: assign the record to one of 1.0 = active, 0.0 = inactive

# input Assay result, entry CS(=O)(=O)Nc1cccc(C2=NN(C(=O)c3cccc(F)c3)C(c3cccs3)C2)c1 (stereo not given) — outcome?
# output 0.0

# input Hello, I am checking results. What call was entered for COc1cccc2c(O)cc(=O)n(C)c12 ?
# output 0.0

# input Outcome logged for CCOc1ccccc1C1CC(c2cccc(NS(C)(=O)=O)c2)=NN1C(=O)c1ccccc1 (stereo not given) in this assay:
# output 1.0

# input Write down the call the test reported for this compound. Item: CCOC(=O)c1cccc(NC(=O)CN(c2ccc(C)cc2)S(=O)(=O)c2c(C)noc2C)c1
# output 0.0

# input Call for entry COc1cccc(NC(=O)C2c3cc(OC)c(OC)cc3C(=O)N(C)C2c2cccnc2)c1 (stereo not given) :
# output 0.0

# input # fetch the recorded call for COc1cccc(C2CC(c3cccs3)=NN2C(=O)CSC2=NCCS2)c1OC (stereo not given) here
# output 0.0

# input Hey, what did the test say about COc1cccc(C2CC(c3ccccc3)=NN2S(=O)(=O)c2ccccc2)c1OC (stereo not given) ?
# output 1.0

# input // outcome(item) with item = COc1cccc(NC(=O)C/C(C)=N/NC(=O)C2CCCCC2)c1
# output 0.0

# input Would you mind telling me which call this test gave CS(=O)(=O)Nc1cccc(C2=NN(S(=O)(=O)c3ccccc3)C(c3cccs3)C2)c1 (stereo not given) ?
# output 1.0

# input Called result for CCOC(=O)c1cccc(NC(=O)CCn2nnc3ccccc32)c1
# output 0.0

* * *

- STUDY_SYSTEM: Disintegrin and metalloproteinase domain-containing protein 17 (Homo sapiens) (UniProt P78536)
- ASSAY_SUMMARY: inhibition of ADAM17 peptide cleavage – biochemical, QFRET, primary screen (AID 720648);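 note: 0% = DMSO-only wells as the low control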
- EXPERIMENTAL_PARAMETERS: recombinant ADAM17, EDANS/DABCYL FRET peptide cleavage; at 6.95 µM; active compounds read high
Out of some 370,000 compounds screened, about 3,100 (0.84%) were called active. For the sample, actives were picked, then their nearest neighbours and some compounds at random.
For each entry below, report its inhibition value.
Only the number, expressed in %, is required.

# input Which measured inhibition value corresponds to O=C(CSc1nnc(-c2cccs2)n1Cc1ccco1)c1ccc2c(c1)OCO2 ?
# output 1.24

# input Quick one: inhibition of COc1ccc(C(c2nnnn2C2CCCC2)N2CCN(C/C=C/c3ccccc3)CC2)cc1 (stereo not drawn) ?
# output -1.95

# input If you can, please state the reported inhibition value of Cc1cccc(N2C(=O)N3[C@H](c4ccc(F)cc4)[C@@H]4C(=O)N(C5CCCCC5)C(=O)[C@@H]4[C@]3(Cc3ccccc3)C2=O)c1 .
# output 1.18

# input What measured inhibition goes with CC(c1c[nH]c2ccccc12)c1c(-c2ccccc2)n(C)c2ccccc12 (stereo not drawn) ?
# output -2.38

# input Reported inhibition for C[C@@]12C(=O)N(c3cccc(Br)c3)C(=O)N1[C@H](c1ccc(Cl)cc1)[C@@H]1C(=O)N(C3CCCCC3)C(=O)[C@@H]12 : what is it?
# output 13.3

# input Entry COC(C(=O)Nc1ccc(S(=O)(=O)Nc2ccc(C)c(C)c2)cc1)c1ccccc1 (stereo not drawn) : reported inhibition = ?
# output 9.01

# input Find the recorded inhibition belonging to COC(C(=O)NCc1ccccc1C)c1ccccc1 (stereo not drawn) and report it.
# output -5.21

# input Look up inhibition for this compound: COC(=O)[C@]12C[C@H](CC(=O)NCCCN3CCCC3=O)C(=O)N(CCc3ccc(OC)c(OC)c3)C1=C[C@H](COCc1ccccc1)O[C@@H]2C
# output -6.14

# input Look up inhibition: Cc1cc(NS(=O)(=O)c2ccc(NC(=O)CSc3nnc(-c4ccc(C(C)(C)C)cc4)n3Cc3ccco3)cc2)nc(C)n1
# output 0.8

# input # query: inhibition of entry O=S1(=O)c2c(cccc2N2CCSCC2)Oc2ccccc2CN1Cc1cn(Cc2ccc(F)cc2)nn1
# output -0.02

# input // lookup inhibition for CC(C)(C)N1C(=O)[C@H]2[C@@H](c3ccc(Br)cc3)N3C(=O)N(c4cccc(Cl)c4)C(=O)[C@@]3(C)[C@H]2C1=O
# output 10

# input Dear colleague, I am looking for the recorded inhibition of the following compound: O=C1[C@H]2[C@@H](c3ccc(Cl)cc3)N3C(=O)N(c4cccc(F)c4)C(=O)[C@@]3(Cc3ccccc3)[C@H]2C(=O)N1C1CCCCC1
# output -3.52

# input Looking for the measured inhibition of Cc1cc(C)c(C#N)c(SCc2ccc3c(c2)OCO3)n1 , can you help?
# output -0.68

# input Any idea what its inhibition is? The compound is CC[C@@]12C(=O)N(c3ccccc3)C(=O)N1[C@H](c1ccc(Br)cc1)[C@@H]1C(=O)N(C(C)(C)C)C(=O)[C@@H]12
# output 8.73

# input Field request: inhibition | item: O=C1[C@H]2[C@@H](c3ccc(F)cc3)N3C(=O)N(c4ccc(C(F)(F)F)cc4)C(=O)[C@@]3(Cc3ccccc3)[C@H]2C(=O)N1C1CCCCC1
# output 1.1

# input Please look up its inhibition: CCN1C(=O)[C@H]2[C@@H](c3ccc(C)cc3)N3C(=O)N(c4cccc(Br)c4)C(=O)[C@@]3(CC)[C@H]2C1=O
# output 1.14

# input Which inhibition is reported for this compound? CC(C)(C)NC(=O)C(c1cccnc1)N(C(=O)c1cnco1)c1ccc(C(C)(C)C)cc1 (stereo not drawn)
# output -6.7

# input What measured inhibition goes with COc1ccc(-c2cc(-c3nnc(SCC(=O)Nc4cccc5ccccc45)n3N)[nH]n2)cc1 ?
# output -3.93

# input Which measured inhibition value corresponds to CCCCC(=O)N[C@@H]1CC[C@@]23CCCN2C(=O)CCC[C@H]3[C@H]1C ?
# output -6.42

# input Can you look up the measured inhibition of Cc1ccc(C)c(NC(=S)NNC(=S)Nc2ccc(C(C)C)cc2)c1 for me?
# output 11

# input Endpoint output: inhibition of FC(F)(F)Oc1ccccc1C(c1nnnn1C1CCCCC1)N1CCN(C/C=C/c2ccccc2)CC1 (stereo not drawn) . Value?
# output 9.77

# input What value of inhibition has been reported for the following compound? CCCCCCCCNS(=O)(=O)/C=C/c1cc(C)ccc1CNC(=O)OC(C)(C)C
# output -2.49

# input Name the recorded inhibition for O=C(O)CCC(=O)N(Cc1ccco1)c1nc(-c2ccccc2)cs1 .
# output -2.47

# input Which inhibition reading was recorded for the compound COc1ccc(C2C(C#N)=C(N)Oc3n[nH]c(C)c32)cc1CN1CCN(c2ccc(F)cc2)CC1 (stereo not drawn) ?
# output 0.41

# input Query: inhibition; subject: Cc1ccc(-c2n[nH]c(=S)n2/N=C/c2cc3c(cc2[N+](=O)[O-])OCO3)cc1
# output 8.7

# input What does the data say about its inhibition? Entry: CC1CC(=O)N(CC(=O)Nc2cccc(Cl)c2)c2ccccc2S1(=O)=O (stereo not drawn)
# output 0.03

# input // returns reported inhibition for input CC(=O)Nc1nc2ncccn2c1-c1ccc(C(F)(F)F)cc1
# output -266

# input Query: inhibition; subject: CC(C)c1ccc(NC(=S)NC2CC3C=CC2C3)cc1 (stereo not drawn)
# output 1.36
